Data provenance is patent US20130109846A1.

Each entry below lists one item and its recorded Luciferase assay (EC50) value.
# testTarget: human CD28 (human, UniProt P10747 19-220)
# protocolNotes: cell-based or functional assay

Problem: Value lookup for Luciferase assay (EC50); key = 1h-99-264 (other) VH: EVQLLESGGGLVQPGGSLRLSCAASGFTFDKSNMSWVRQAPGKGLEWVSWIEAPGVQTFYADSVRGRFTISRDNSKNTLYLQMNSLRAEDTAVYYCARSPFGPLYGFDYRGQGTLVTVSS
Result: 5 nM

Problem: Next binder: 1h-80-7 (other) VL: DIQMTQSPSSLSASVGDRVTITCRASQRIGSNLAWYQQKPGKAPKLLIYWASLLQSGVPSRFSGSGSGSDFTLTISSLQPEDFATYYCQETRSAPFTFGQGTKVEIKR
Result: 322 nM

Problem: Next binder: 1h-79-807 (other) VL: DIQMTQSPSSLSASVGDRVTITCRASQPIGHTLGWYQQKPGKAPKLLIYWASDLIRGVPSRFSGSGSGTDFTLTISSLQPEDFATYYCQQMLRTPFMFGQGTKVEIKR
Result: 31 nM

Problem: Next binder: 1h-93-1 (other) VH: EVQLLESGGGLVQPGGSLRLSCAASGFTFPLYEMAWVRQAPGKGLEWVSSIMSNGTRTYYADSVKGRFTISRDNSKNTLYLQMNSLRAEDTAVYYCAKRESSSSRTVFDYWGQGTLVTVSS
Result: 493 nM
